All figures here come from paper PMC11580889.

subject_of_test: PNKP (polynucleotide kinase 3'-phosphatase); purified recombinant PNKP (Homo sapiens, UniProt Q96T60)
protocol_summary: intrinsic tryptophan fluorescence quenching titration
measured_attribute: Kd (nM)
The reply should contain only the number, in nM.

Entry `O=P(O)(O)OC[C@H]1O[C@@](CO)(OP(=O)(O)O)[C@@H](O)[C@@H]1O` , Kd reported as 525
